system: HIV-RT (purified RT from HIV-1, expressed in E. coli) (Human immunodeficiency virus type 1 group M subtype B, UniProt P04585)
Construct: purified RT from HIV-1
protocol: Inhibition of HIV-1 reverse transcriptase (RT), [3H]-thymidine-5'-triphosphate incorporation
condition_parameters: purified recombinant HIV-1 RT; HIV-LTR in vitro transcript template, 18 mer primer
pIC50: −log10 of the molar value.
recorded_endpoint: pIC50

# compound, numeric_readout
rows = [
    ("O=C1c2ccccc2C2(c3cccc(C(F)(F)F)c3)SCCN12 (centres unmarked)", 6.00),
    ("O=C1c2ccccc2C2(c3ccc(Cl)c(Cl)c3)SCCN12 (centres unmarked)", 5.40),
    ("O=C1c2ccccc2C2(c3ccccc3)N1CCS2(=O)=O (centres unmarked)", 5.85),
    ("O=C1c2ccccc2C2(c3ccc(Cl)cc3)SCCN12 (centres unmarked)", 5.40),
    ("Cc1ccc(C)c(C23SCCN2C(=O)c2ccccc23)c1 (centres unmarked)", 6.02),
]
